- target: BRD4 (BDI_K57-E168) (Homo sapiens)
- Construct: BD1: amino acids K57-E168
- protocol_summary: TR-FRET bromodomain binding assay, BRD4 first bromodomain
- assay_conditions: His-tagged BD1, Alexa647-labeled probe 100 nM; Ki calculated from IC50
readout: Ki (nM)

1 = Cc1[nH]c(-c2ccccc2NC2CCCCC2)cc1C(N)=O [Example 62]
2 = Cc1[nH]c(-c2ccccc2NCc2ccc(O)cc2)cc1C(N)=O [Example 54]
3 = Cc1[nH]c(-c2ccccc2NCc2ccc3[nH]ccc3c2)cc1C(N)=O [Example 56]
4 = Cc1[nH]c(-c2cccc3[nH]cnc23)cc1C(N)=O [Example 163]
5 = CC(=O)Nc1cccc(-c2cc(C(N)=O)c(C)[nH]2)c1 [Example 5]
Task item: Please rank these molecules by Ki in descending order. List the labels, following the order given in the request.
Reply: 5, 3, 4, 2, 1
(5: 8090 nM, 3: 1630 nM, 4: 912 nM, 2: 585 nM, 1: 197 nM)
